// provenance: the supplement of paper PMC10567573

B1: SAT2 (parent)
chain: GYGIYYFIYSTWKGRTIYLEDIYV

# Variants of: B1
# protocolDetails: protein stability index of a GFP-peptide fusion (GPS, HEK-293T) (PSI 1-6); higher = more stable;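 note: lentivirally expressed fusions sorted by FACS into six bins by GFP to DsRed ratio, PSI derived from sequencing read proportions per bin multiplied by bin number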
# measurementConditions: c terminus: a fixed tail appended
metric: protein stability index

* G1L | 3.6
* G14W | 2.43
* Y18F | 3.01
* F7D | 3.03
* G14Q | 3.24
* I8Y | 3.28
* I22Y | 2.09
* W12T | 2.5
* D21R | 1.47
* I17V | 2.27
* I8C | 1.7
